Would you mind telling me the reported isoTOP-ABPP ratio P57764_C268 of each entry?
assayedSystem: cysteines in MDA-MB-231 and Ramos cells (Homo sapiens, UniProt P57764)
Sequence (P57764 whole entry, the tested form may be a part): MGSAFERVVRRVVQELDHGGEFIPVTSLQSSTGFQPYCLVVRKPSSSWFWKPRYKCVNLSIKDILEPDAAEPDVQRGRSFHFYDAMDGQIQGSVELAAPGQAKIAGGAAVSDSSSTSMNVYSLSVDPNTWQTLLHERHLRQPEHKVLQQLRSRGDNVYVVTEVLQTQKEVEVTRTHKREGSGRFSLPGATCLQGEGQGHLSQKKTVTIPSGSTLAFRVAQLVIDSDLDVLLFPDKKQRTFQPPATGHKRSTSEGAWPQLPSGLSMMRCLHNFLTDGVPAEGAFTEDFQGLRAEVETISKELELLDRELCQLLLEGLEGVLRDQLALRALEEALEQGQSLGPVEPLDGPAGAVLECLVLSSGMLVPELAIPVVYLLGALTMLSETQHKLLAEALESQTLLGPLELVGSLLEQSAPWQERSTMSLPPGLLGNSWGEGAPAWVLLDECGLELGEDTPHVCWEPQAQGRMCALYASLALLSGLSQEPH
assayText: Competitive isoTOP-ABPP in situ (fragment-treated cells)
Format: cell-based
conditionDescription: 200 μM, insitu, ramos

Give the measured isoTOP-ABPP ratio P57764_C268 of `O=C(CCl)N1CCN(CC(=O)N2CCOCC2)CC1` . 1.1

Query `O=C(CCl)NCCc1c[nH]c2ccccc12` next 1.5

Query `C=CC(=O)N(Cc1cccnc1)c1cc(C(F)(F)F)cc(C(F)(F)F)c1` next 3.1

Query `O=C(CCl)N1CCN(S(=O)(=O)c2ccccc2F)CC1` next 2.2

* * *

assayedSystem: cysteines in MDA-MB-231 and Ramos cells (Homo sapiens)
Sequence (Q15233 1-471): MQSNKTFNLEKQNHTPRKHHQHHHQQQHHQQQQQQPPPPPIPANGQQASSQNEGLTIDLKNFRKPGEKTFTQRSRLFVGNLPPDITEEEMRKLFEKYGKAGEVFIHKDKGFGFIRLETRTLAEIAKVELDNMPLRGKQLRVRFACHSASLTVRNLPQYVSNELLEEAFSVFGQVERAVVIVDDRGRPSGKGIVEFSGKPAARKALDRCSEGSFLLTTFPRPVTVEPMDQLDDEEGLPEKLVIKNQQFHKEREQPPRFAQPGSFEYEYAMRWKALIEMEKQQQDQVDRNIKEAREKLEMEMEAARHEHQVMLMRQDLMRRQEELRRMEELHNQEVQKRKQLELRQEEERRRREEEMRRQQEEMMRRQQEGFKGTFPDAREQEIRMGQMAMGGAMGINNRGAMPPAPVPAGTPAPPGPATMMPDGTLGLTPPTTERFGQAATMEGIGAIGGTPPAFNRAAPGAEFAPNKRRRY
assayText: Competitive isoTOP-ABPP in situ (fragment-treated cells)
Type: cell-based
conditionDescription: 200 μM, insitu, 231
Would you mind telling me the reported isoTOP-ABPP ratio Q15233_C145 of each entry?
Answer using only a numeral; do not append any unit.

Give the measured isoTOP-ABPP ratio Q15233_C145 of Cc1ccc(C=C(C#N)C(=O)NCCN2CCOCC2)cc1 [compound 41] . 1.1

Query O=C(CCl)NC(=O)NC12CC3CC(CC(C3)C1)C2 [compound 12] next 2.4

Query CC1CCc2ccccc2N1C(=O)CCl (stereo not drawn) [compound 45] next 3.7

Query C=CC(=O)N(Cc1cccnc1)c1cc(C(F)(F)F)cc(C(F)(F)F)c1 [compound 31] next 0.7

Query COc1ccccc1OCCNC(=O)CCl [compound 28] next 1.1

Query O=C(CCl)NCCc1c[nH]c2ccccc12 [compound 13] next 1.0

Query C=CC(=O)Nc1cc(F)c(N2CCN(C(=O)OC(C)(C)C)CC2)c(F)c1 [compound 38] next 0.9

Query CC(C)CCOCCNC(=O)CCl [compound 27] next 1.2

Query O=C(CCl)Nc1cccc2ncccc12 [compound 51] next 1.6

* * *

Would you mind telling me the reported isoTOP-ABPP ratio Q96HE7_C37 of each entry?
assayedSystem: cysteines in MDA-MB-231 and Ramos cells (Homo sapiens, UniProt Q96HE7)
Sequence (Q96HE7 24-468): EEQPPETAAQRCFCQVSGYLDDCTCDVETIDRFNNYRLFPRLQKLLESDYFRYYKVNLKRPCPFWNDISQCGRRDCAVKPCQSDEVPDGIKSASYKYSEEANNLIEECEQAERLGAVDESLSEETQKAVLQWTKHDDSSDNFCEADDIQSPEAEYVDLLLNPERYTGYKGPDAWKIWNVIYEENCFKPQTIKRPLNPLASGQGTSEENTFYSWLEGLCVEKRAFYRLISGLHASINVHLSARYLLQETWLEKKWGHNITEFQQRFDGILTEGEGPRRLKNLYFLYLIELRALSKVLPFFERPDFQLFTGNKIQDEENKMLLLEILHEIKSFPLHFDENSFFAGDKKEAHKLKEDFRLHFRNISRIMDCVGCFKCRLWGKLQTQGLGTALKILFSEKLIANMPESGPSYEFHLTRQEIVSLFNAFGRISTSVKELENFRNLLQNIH
assayText: Competitive isoTOP-ABPP in situ (fragment-treated cells)
Assay type: cell-based
conditionDescription: 200 μM, insitu, 231
Answer using only a numeral; do not append any unit.

Give the measured isoTOP-ABPP ratio Q96HE7_C37 of `Cc1ccc(C=C(C#N)C(=O)NCCN2CCOCC2)cc1` . 0.4

Query `C=CC(=O)N(Cc1cccnc1)c1cc(C(F)(F)F)cc(C(F)(F)F)c1` next 0.6

Query `C=CC(=O)Nc1cc(F)c(N2CCN(C(=O)OC(C)(C)C)CC2)c(F)c1` next 3.4

Query CC1CCc2ccccc2N1C(=O)CCl (stereo not shown) next 20.0

* * *

assayedSystem: cysteines in MDA-MB-231 and Ramos cells (Homo sapiens, UniProt Q15365)
Sequence (Q15365 whole entry, the tested form may be a part): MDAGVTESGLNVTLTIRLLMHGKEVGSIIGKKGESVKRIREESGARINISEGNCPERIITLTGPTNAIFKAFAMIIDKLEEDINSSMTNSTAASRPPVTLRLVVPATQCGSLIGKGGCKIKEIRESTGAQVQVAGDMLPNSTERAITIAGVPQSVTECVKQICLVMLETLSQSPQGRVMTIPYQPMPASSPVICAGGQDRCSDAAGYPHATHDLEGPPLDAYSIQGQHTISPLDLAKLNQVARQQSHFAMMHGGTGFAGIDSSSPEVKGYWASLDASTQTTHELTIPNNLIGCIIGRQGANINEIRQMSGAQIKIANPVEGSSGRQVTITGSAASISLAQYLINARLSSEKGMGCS
assayText: Competitive isoTOP-ABPP in situ (fragment-treated cells)
Assay type: cell-based
conditionDescription: 200 μM, insitu, 231
Would you mind telling me the reported isoTOP-ABPP ratio Q15365_C194 of each entry?

What value of isoTOP-ABPP ratio Q15365_C194 on cysteines in MDA-MB-231 and Ramos cells (Homo sapiens, UniProt Q15365) does `O=C(CCl)Nc1cccc2ncccc12` have? 0.6

Query `O=C(CCl)NCCc1c[nH]c2ccccc12` next 0.9

Query CC1CCc2ccccc2N1C(=O)CCl (centres unmarked) next 1.5

Query `O=C(CCl)NC(=O)NC12CC3CC(CC(C3)C1)C2` next 1.3

Query `C=CC(=O)Nc1cc(F)c(N2CCN(C(=O)OC(C)(C)C)CC2)c(F)c1` next 15

* * *

assayedSystem: cysteines in MDA-MB-231 and Ramos cells (Homo sapiens)
assayText: Competitive isoTOP-ABPP in situ (fragment-treated cells)
Format: cell-based
conditionDescription: 200 μM, insitu, 231
parameter: isoTOP-ABPP ratio Q96RS6_C376
Answer using only a numeral; do not append any unit.

Give the measured isoTOP-ABPP ratio Q96RS6_C376 of Cc1ccc(C=C(C#N)C(=O)NCCN2CCOCC2)cc1 [compound 41] . 0.7

Query C=CC(=O)N(Cc1cccnc1)c1cc(C(F)(F)F)cc(C(F)(F)F)c1 [compound 31] next 0.8

Query O=C(CCl)NCCc1c[nH]c2ccccc12 [compound 13] next 0.7

Query O=C(CCl)NC12CC3CC(CC(C3)C1)C2 [compound 21] next 1.4

Query C=CC(=O)Nc1cc(F)c(N2CCN(C(=O)OC(C)(C)C)CC2)c(F)c1 [compound 38] next 1.3

Query O=C(CCl)N1CCN(S(=O)(=O)c2ccccc2F)CC1 [compound 10] next 5.7

Query O=C(CCl)NC(=O)NC12CC3CC(CC(C3)C1)C2 [compound 12] next 1.1

* * *

Would you mind telling me the reported isoTOP-ABPP ratio P12268_C331 of each entry?
assayedSystem: cysteines in MDA-MB-231 and Ramos cells (Homo sapiens)
assayText: Competitive isoTOP-ABPP in situ (fragment-treated cells)
Type: cell-based
conditionDescription: 200 μM, insitu, ramos

Give the measured isoTOP-ABPP ratio P12268_C331 of C=CC(=O)N(Cc1cccnc1)c1cc(C(F)(F)F)cc(C(F)(F)F)c1 [compound 31] . 1.1

Query O=C(CCl)NCCc1c[nH]c2ccccc12 [compound 13] next 1.4

Query O=C(CCl)N1CCN(CC(=O)N2CCOCC2)CC1 [compound 29] next 1.3

Query O=C(CCl)N1CCN(S(=O)(=O)c2ccccc2F)CC1 [compound 10] next 2.1

* * *

assayedSystem: cysteines in MDA-MB-231 and Ramos cells (Homo sapiens, UniProt Q15021)
Sequence (Q15021 whole entry, the tested form may be a part): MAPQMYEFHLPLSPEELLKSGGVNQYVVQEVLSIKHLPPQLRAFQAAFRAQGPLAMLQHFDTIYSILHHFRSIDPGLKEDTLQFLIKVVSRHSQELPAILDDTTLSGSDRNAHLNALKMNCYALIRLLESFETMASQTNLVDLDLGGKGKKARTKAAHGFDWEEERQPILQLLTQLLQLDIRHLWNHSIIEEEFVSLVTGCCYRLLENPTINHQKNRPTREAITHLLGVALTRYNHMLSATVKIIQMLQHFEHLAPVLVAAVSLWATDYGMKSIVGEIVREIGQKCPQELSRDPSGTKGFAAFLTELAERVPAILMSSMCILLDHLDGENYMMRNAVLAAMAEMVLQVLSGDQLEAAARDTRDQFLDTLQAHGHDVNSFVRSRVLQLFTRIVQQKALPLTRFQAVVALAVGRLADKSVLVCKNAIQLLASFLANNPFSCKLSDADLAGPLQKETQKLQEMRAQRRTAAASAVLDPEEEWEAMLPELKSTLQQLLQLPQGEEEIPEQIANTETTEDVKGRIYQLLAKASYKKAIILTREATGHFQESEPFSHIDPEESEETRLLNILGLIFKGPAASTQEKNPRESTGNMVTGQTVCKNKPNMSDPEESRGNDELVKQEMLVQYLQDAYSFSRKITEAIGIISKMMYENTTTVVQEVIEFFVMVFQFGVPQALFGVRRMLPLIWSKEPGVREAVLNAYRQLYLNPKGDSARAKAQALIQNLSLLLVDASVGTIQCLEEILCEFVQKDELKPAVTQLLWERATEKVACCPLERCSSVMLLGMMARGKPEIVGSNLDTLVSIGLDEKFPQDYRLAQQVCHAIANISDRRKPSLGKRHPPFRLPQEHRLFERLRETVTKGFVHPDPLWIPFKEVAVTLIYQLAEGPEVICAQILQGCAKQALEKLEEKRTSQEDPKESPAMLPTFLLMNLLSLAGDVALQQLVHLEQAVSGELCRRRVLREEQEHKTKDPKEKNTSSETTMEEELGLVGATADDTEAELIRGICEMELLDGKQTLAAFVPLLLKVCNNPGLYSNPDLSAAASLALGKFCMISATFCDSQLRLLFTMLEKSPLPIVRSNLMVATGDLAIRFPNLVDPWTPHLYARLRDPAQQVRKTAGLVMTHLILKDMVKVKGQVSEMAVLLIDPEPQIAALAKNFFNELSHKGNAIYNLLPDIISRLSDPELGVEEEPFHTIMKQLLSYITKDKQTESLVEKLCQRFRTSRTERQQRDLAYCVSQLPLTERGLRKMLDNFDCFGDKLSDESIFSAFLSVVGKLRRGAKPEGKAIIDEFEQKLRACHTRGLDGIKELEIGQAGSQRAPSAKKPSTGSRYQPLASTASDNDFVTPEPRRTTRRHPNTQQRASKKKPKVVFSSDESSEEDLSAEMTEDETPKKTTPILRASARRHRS
assayText: Competitive isoTOP-ABPP in situ (fragment-treated cells)
Type: cell-based
conditionDescription: 200 μM, insitu, 231
Would you mind telling me the reported isoTOP-ABPP ratio Q15021_C439 of each entry?
Answer using only a numeral; do not append any unit.

What value of isoTOP-ABPP ratio Q15021_C439 on cysteines in MDA-MB-231 and Ramos cells (Homo sapiens, UniProt Q15021) does `O=C(CCl)NC12CC3CC(CC(C3)C1)C2` have? 0.7

Query `O=C(CCl)Nc1cccc2ncccc12` next 1.1

Query `CC(C)CCOCCNC(=O)CCl` next 0.6

Query `O=C(CCl)N1CCN(S(=O)(=O)c2ccccc2F)CC1` next 5.2

* * *

Would you mind telling me the reported isoTOP-ABPP ratio (reactivity profile), O14980_C34 of each entry?
assayedSystem: XPO1 C34 (O14980) (Homo sapiens, UniProt O14980)
Sequence (O14980 whole entry): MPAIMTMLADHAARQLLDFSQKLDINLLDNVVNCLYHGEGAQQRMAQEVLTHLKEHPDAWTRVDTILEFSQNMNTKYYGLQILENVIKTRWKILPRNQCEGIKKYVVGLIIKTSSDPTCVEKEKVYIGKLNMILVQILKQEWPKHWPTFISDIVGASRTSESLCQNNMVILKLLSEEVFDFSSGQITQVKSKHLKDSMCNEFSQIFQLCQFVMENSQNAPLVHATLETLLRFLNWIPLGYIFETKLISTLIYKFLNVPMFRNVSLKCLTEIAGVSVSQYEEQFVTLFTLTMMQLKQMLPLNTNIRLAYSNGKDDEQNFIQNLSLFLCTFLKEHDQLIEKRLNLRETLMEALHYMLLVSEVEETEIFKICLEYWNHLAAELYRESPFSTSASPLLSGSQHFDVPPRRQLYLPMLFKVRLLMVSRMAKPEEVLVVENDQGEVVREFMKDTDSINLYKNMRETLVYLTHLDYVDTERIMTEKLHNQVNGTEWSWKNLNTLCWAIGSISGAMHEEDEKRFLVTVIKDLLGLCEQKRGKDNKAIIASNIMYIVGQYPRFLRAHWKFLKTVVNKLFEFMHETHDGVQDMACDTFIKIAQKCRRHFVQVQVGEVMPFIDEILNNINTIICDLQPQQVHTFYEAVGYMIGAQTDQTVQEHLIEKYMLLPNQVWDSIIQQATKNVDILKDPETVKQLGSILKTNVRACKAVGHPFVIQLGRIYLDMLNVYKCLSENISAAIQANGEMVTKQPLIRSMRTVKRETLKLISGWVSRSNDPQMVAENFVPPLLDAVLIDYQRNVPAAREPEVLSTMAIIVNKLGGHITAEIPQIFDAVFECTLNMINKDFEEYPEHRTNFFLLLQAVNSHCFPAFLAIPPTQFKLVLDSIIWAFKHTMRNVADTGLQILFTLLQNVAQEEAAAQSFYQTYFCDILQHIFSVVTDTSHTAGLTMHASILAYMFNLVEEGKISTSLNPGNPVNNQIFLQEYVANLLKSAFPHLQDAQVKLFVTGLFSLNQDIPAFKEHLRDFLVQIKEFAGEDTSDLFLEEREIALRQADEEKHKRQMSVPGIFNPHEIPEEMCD
assayText: Competitive isoTOP-ABPP, cell lysates
Format: binding
conditionDescription: 500 μm in-vitro ramos
Answer using only a numeral; do not append any unit.

What value of isoTOP-ABPP ratio (reactivity profile), O14980_C34 on XPO1 C34 (O14980) (Homo sapiens, UniProt O14980) does CC(Br)C(=O)Nc1cc(C(F)(F)F)cc(C(F)(F)F)c1 (stereo not shown) [compound 24] have? 1.1

Query CC(C)CCOCCNC(=O)CCl [compound 27] next 1.0

Query C=CC(=O)N(Cc1cccnc1)c1ccc(Oc2ccccc2)c(C(F)(F)F)c1 [compound 15] next 1.2

Query CCN(CC)c1ccc(S(N)(=O)=O)cc1NC(=O)CCl [compound 30] next 0.7

Query O=C(/C=C/c1ccccc1)Nc1cc(C(F)(F)F)cc(C(F)(F)F)c1 [compound 26] next 0.9

Query O=C(CCl)N1CCN(CC(=O)N2CCOCC2)CC1 [compound 29] next 0.9

Query N#C/C(=C\c1cc(C(F)(F)F)cc(C(F)(F)F)c1)C(N)=O [compound 23] next 5.3

Query COc1ccccc1OCCNC(=O)CCl [compound 28] next 0.9

Query O=C(CCl)NC12CC3CC(CC(C3)C1)C2 [compound 21] next 1.2

Query O=C(CCl)N1CCC(C(O)(c2ccccc2)c2ccccc2)CC1 [compound 20] next 1.2
